Experiment: Components of the Cytosolic LPS Sensing Pathway: Gene Identification via Genome-wide siRNA Screen
Conditions: RAW264.7 macrophages, IL-1a HTRF, actives lie on both sides, screened at 100 nM (by protocol), cells primed 5 h with Pam3CSK4 first
The whole screen tested about 53,000 sequences, of which about 3,700 (7%) were called active.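 Rule for the calls: active = gene knockdowns whose robust z-score for IL-1 alpha signal is at least 2 or at most -2, so actives lie on both sides; inactive = the rest.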 The entries come from a sample that favours actives as a whole.
Possible outcomes: active, inactive

>  <sequenceRecord>
GGCGGAGUUUUUAAUACUCTT against Upb1

>  <labelValue>
inactive

$$$$
>  <sequenceRecord>
GGAUCCUGCAUCUUAUAGUTT against Tcstv3

>  <labelValue>
inactive

$$$$
>  <sequenceRecord>
GCUAAGGACUCAGCAAAACTT against Coq5

>  <labelValue>
inactive

$$$$
>  <sequenceRecord>
GCUUUAUUAACCCAUCAAATT against Wdr78

>  <labelValue>
inactive

$$$$
>  <sequenceRecord>
GCUGGUGAUGACGUGUAUCTT against Slc32a1

>  <labelValue>
inactive

$$$$
>  <sequenceRecord>
GCUUGGUCAUUUUAAUAGGTT against Zscan29

>  <labelValue>
inactive

$$$$
>  <sequenceRecord>
CCGGAAGCUAUUGACCAUUTT against Tmem11

>  <labelValue>
active

$$$$
>  <sequenceRecord>
GGGCUGUUCCAUUUCUUUATT against Atcay

>  <labelValue>
inactive

$$$$
>  <sequenceRecord>
GGUCCAGAUAGACAUCCUGTT against Ralb

>  <labelValue>
inactive

$$$$
>  <sequenceRecord>
GGAUGUGCUCUGUGAAUGCTT against Pgf

>  <labelValue>
inactive

$$$$
>  <sequenceRecord>
CCGAAUCGUCCUAAACCAATT against Cyp11a1

>  <labelValue>
inactive

$$$$
>  <sequenceRecord>
GGCACCCAUUCCUAAAAUGTT against Hmgn5

>  <labelValue>
inactive

$$$$
>  <sequenceRecord>
GCUGUAAUUCCUAAGUUAUTT against Ubxn6

>  <labelValue>
inactive

$$$$
>  <sequenceRecord>
GGACUUUGAUGUUGAAUGUTT against Rapgef1

>  <labelValue>
inactive

$$$$
>  <sequenceRecord>
CCACUUACAUGUCAGAUUATT against Slc30a6

>  <labelValue>
inactive

$$$$
>  <sequenceRecord>
GGGCUUGAAAUUGAAAUGUTT against Ccl9

>  <labelValue>
inactive

$$$$
>  <sequenceRecord>
CCUAUGCUAUGUAGUUUAATT against Adam21

>  <labelValue>
active

$$$$
>  <sequenceRecord>
GGAUUUUUGCACUCAGUAATT against Olfr1256

>  <labelValue>
inactive

$$$$
>  <sequenceRecord>
GACUGCUUCCUUCUGACUGTT against Olfr399

>  <labelValue>
inactive

$$$$
>  <sequenceRecord>
GCCCUACCUUGAAUCCCAUTT against Olfr532

>  <labelValue>
inactive

$$$$
>  <sequenceRecord>
GGAAGAGGUCUUUAAUACATT against Kif4

>  <labelValue>
active

$$$$
>  <sequenceRecord>
GGCAGGCAGAAGGCUUUUUTT against Olfr228

>  <labelValue>
inactive

$$$$
>  <sequenceRecord>
GGAGUCCUCUAAUGUAAAUTT against Elovl4

>  <labelValue>
inactive

$$$$
>  <sequenceRecord>
GGUAUAUCCCUCACAAAAGTT against Dnah2

>  <labelValue>
inactive

$$$$
>  <sequenceRecord>
CCUCUGGAUCUACGAGCUGTT against Odf4

>  <labelValue>
inactive

$$$$
>  <sequenceRecord>
GGGAGAAGGUAAGUGCAUGTT against Golga7b

>  <labelValue>
inactive

$$$$
>  <sequenceRecord>
GGUCUUCUGAAGAUGGCGUTT against Pja2

>  <labelValue>
inactive

$$$$
>  <sequenceRecord>
GGACUCAUGUUCAACACAGTT against Dimt1

>  <labelValue>
inactive

$$$$
>  <sequenceRecord>
CCAAAAGCAUAUCAGUCGGTT against Olfr1122

>  <labelValue>
inactive

$$$$
>  <sequenceRecord>
GCACCUCUGACAAGGUUCUTT against Plin1

>  <labelValue>
active

$$$$
>  <sequenceRecord>
GCCAAACACUCGACUCUAATT against Gm11733

>  <labelValue>
inactive

$$$$
>  <sequenceRecord>
GGUUACUAGAAAAGUGUUGTT against Olfr1489

>  <labelValue>
inactive

$$$$
>  <sequenceRecord>
CCCUAAGGUGGCAGAAAUCTT against Atp1a2

>  <labelValue>
inactive

$$$$
>  <sequenceRecord>
GGUUCUUGGGCACCAUUAUTT against Olfr786

>  <labelValue>
inactive

$$$$
>  <sequenceRecord>
CCCUCACAGUAACCUGUCGTT against Espl1

>  <labelValue>
active

$$$$
>  <sequenceRecord>
GGCAGAAACUAAGAAUGAATT against Mx1

>  <labelValue>
inactive

$$$$
>  <sequenceRecord>
GGAAGUGGUCCACCUGAUCTT against Mms19

>  <labelValue>
inactive

$$$$
>  <sequenceRecord>
GGCUCAAAACCACACCACUTT against Olfr477

>  <labelValue>
active

$$$$
>  <sequenceRecord>
GGCAGAGAGAUGUUACAAGTT against Ccl8

>  <labelValue>
inactive

$$$$
>  <sequenceRecord>
CCACCCAAAAGUAAAAAGUTT against Rpp38

>  <labelValue>
inactive

$$$$
>  <sequenceRecord>
GCGUGCUUAUGAACAUAGUTT against Spen

>  <labelValue>
active

$$$$
>  <sequenceRecord>
GGAAUUGAGACCCAAUAUUTT against Cnot7

>  <labelValue>
inactive

$$$$
>  <sequenceRecord>
GCAUGAUGGUGCGCUUAAGTT against Ngdn

>  <labelValue>
inactive

$$$$
>  <sequenceRecord>
GGAACAGAAAACCAUAUAATT against Snx29

>  <labelValue>
active

$$$$
>  <sequenceRecord>
GGAGGAAGAGGAGAAUCUATT against Supt6

>  <labelValue>
active

$$$$
>  <sequenceRecord>
CGUUUUUAUGAGGAGGCCUTT against N4bp3

>  <labelValue>
inactive

$$$$
>  <sequenceRecord>
GCAUGGACAAAUGUCCCUGTT against Lce1f

>  <labelValue>
inactive

$$$$
>  <sequenceRecord>
GCCGGAAUCAAGAUUAUCATT against Foxm1

>  <labelValue>
active

$$$$
>  <sequenceRecord>
CCAGAGUCUUUGGUAAUGCTT against Krtap3-3

>  <labelValue>
inactive

$$$$
>  <sequenceRecord>
CCAACAUCGAGCUAGCCACTT against Psma5

>  <labelValue>
active

$$$$
